Each item that follows carries a reported half-life.
- method: in vivo
- details: rat, iv, 1 mg/kg
- Description: Half life in rat at 1 mg/kg, iv
A number alone suffices; assume h.

Use the examples below as a reference point.
| compound | half-life / h |
| --- | --- |
| COc1ccc(F)cc1-c1ccnc2[nH]c(C3=CCC(N[C@@H](C(=O)O)C(C)C)CC3)cc12 (stereo not given in full) | 0.68 |
| CCOC(=O)NS(=O)(=O)N1CC=C(c2cc3c(-c4cc(F)ccc4OC)ccnc3[nH]2)CC1 | 1.6 |

Pending compound:
Using the record for `COc1ccc(F)cc1-c1ccnc2[nH]c(C3=CCN([C@H]4CC[C@H](CC(=O)O)CC4)CC3)cc12` , state its measured half-life.
2.8
